Where these numbers come from: paper PMC5041104

- experimental-protocol: Compound cytotoxicity (cell viability)
- test-conditions: hamster
test-readout: CC50 at 120 h (µM)
// return numeric value only (unit: µM, not printed)

INPUT: // CC50 at 120 h lookup, key: CS(=O)(=O)c1ccc2nc(NC(=O)c3ccc(Cn4cc([N+](=O)[O-])cn4)cc3)sc2c1 [compound 1]
OUTPUT: 168

----------
- experimental-protocol: Compound cytotoxicity (cell viability)
- test-conditions: hamster
test-readout: viability at 120 h, 200 µM

INPUT: Data request, read-out viability at 120 h, 200 µM, for CCCC(=O)Nc1nc2ccc(NC(=S)NC(=O)c3cccs3)cc2s1
OUTPUT: > 60%
